Tested on: green peach aphids (Myzus persicae)
Assay: LC50 biological efficacy assay on green peach aphids, aerosolized dilutions on infested radish leaves
Type: in vivo
Settings: concentration for 50% control over 24-48 hours; infested radish leaves, 500 μl aerosolized dilution
Just a reminder that ties go to not fulfilled: only LC50 strictly below 7 ppm counts as fulfilled.

CC(C)=CCc1cccc2[nH]c3c(c12)C[C@@H]1CC[C@@]2(O)[C@@]45O[C@@H]4[C@@H]4O[C@H](C6OC6(C)C)OC(C)(C)[C@H]4O[C@H]5CC[C@]2(C)[C@@]31C (stereo partly shown) [Terpendole O, terpendole O]; not fulfilled
CC(C)=C[C@H]1O[C@H]2[C@H]3O[C@@]34[C@H](CC[C@@]3(C)[C@@]4(O)CC[C@H]4Cc5c([nH]c6ccccc56)[C@@]43C)O[C@@H]2C(C)(C)O1 [Terpendole C, terpendole C]; not fulfilled
CC(C)=C[C@@H]1O[C@H]2[C@@H](O[C@@H]3CC[C@]4(C)[C@](O)(CC[C@H](CC5(O)C(=O)Nc6cccc(CC7OC7(C)C)c65)[C@@]4(C)O)[C@@]34O[C@@H]24)C(C)(C)O1 (stereo partly shown) [Terpendole N, terpendole N]; fulfilled
CC(C)=CCc1ccc2c3c([nH]c2c1)[C@@]1(C)[C@@H](CC[C@@]2(O)[C@@]45O[C@@H]4[C@@H]4O[C@H](C6OC6(C)C)OC(C)(C)[C@H]4O[C@H]5CC[C@@]21C)C3 (stereo partly shown) [Terpendole P, terpendole P]; not fulfilled

Consider the additional molecule presented here.
// query Determine whether this molecule shows LC50 lower than 7 ppm (ties excluded): CC(C)=C[C@H]1O[C@H]2[C@H]3O[C@@]34C(=CC[C@@]3(C)[C@@]4(O)CC[C@H]4Cc5c([nH]c6ccccc56)[C@@]43C)O[C@@H]2C(C)(C)O1 [Terpendole K, terpendole K]
// result not fulfilled
